Entry source: the Human Domainome abundance scans (Beltran et al. 2025)

Listed below: abundance fitness values for each entry.
B1: Myocardin-related transcription factor A, residues 341 to 383; numbered along this chain, Q969V6 (parent)
chain: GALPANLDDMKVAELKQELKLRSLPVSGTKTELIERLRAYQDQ

Variants of: B1
Test: abundance fitness (aPCA) (normalised: wild type 0, dead -1); higher = more abundant; growth selection in yeast, the domain comes from the species named
Details: Homo sapiens
// return a plain number; no unit text

Some variants with known abundance fitness results, for comparison:
# Mutant Name, abundance fitness
measured = [
    ("P25Q", -0.167),
    ("R36K", -0.234),
    ("Q43R", 0.567),
    ("Q41N", 0.18),
    ("S27V", -0.251),
    ("D42R", -0.234),
    ("K20T", -0.145),
    ("S27Y", -0.136),
]

Exercise: Look up abundance fitness for this variant: R22F
Key: -0.816

Exercise: Look up abundance fitness for this variant: L24H
Key: -0.979
